# System: HepG2 2.2.15
# Test name: Cytotoxicity against human HepG2.2.15 cells by Cell-titer Glo luminescent assay
# Assay type: functional
Item-by-item account of CC50

Take a look at these entries with their results.
CC(C)[C@@H]1COc2cc(OCCCCO)c(Cl)cc2-c2cc(=O)c(C(=O)O)cn21
> 50 µM
COCCCCOc1cc2c(cc1Cl)-c1cc(=O)c(C(=O)O)cn1[C@H](C(C)C)CO2
43 µM
CCC1(C(C)C)Cc2cc(OCCCOC)c(OC)nc2-c2cc(=O)c(C(=O)O)cn21 (stereo not given)
> 50 µM
CC(C)[C@@H]1COc2cc(OCCCN3CCOCC3)c(Cl)cc2-c2cc(=O)c(C(=O)O)cn21
> 50 µM

Here is another molecule to look at.
Req: Kindly indicate its recorded CC50. Item: CC(C)C1Cc2sccc2-c2cc(=O)c(C(=O)O)cn21 (stereo not given)
Resp: > 50 µM

###

Item-by-item account of fold change (FC)
# Test name: Drug accumulation in Sprague-Dawley rat liver assessed as fold change in drug uptake at 10 mg/kg,po measured at 0.083 to 24 hrs post administration by LC-MS/MS analysis
# Assay type: ADME, organism-based
# Test context: in vivo, time 0.083-24 hrs
Output: the number by itself.

COCCCOc1cc2c(cc1OC)-c1cc(=O)c(C(=O)O)cn1[C@H](C(C)C)C2
12

Req: Kindly indicate its recorded fold change (FC). Item: `COCCCOc1cc2c(nc1OC)-c1cc(=O)c(C(=O)O)cn1[C@](C)(C(C)(C)C)C2`
Resp: 35

Req: Kindly indicate its recorded fold change (FC). Item: `COCCCOc1cc2c(nc1OC)-c1cc(=O)c(C(=O)O)cn1[C@](C)(C(C)C)C2`
Resp: 15

Req: Kindly indicate its recorded fold change (FC). Item: `COCCCOc1cc2c(nc1OC)-c1cc(=O)c(C(=O)O)cn1[C@H](C(C)C)C2`
Resp: 28

###

Item-by-item account of clearance
# Test name: Clearance in Sprague-Dawley rat at 2 mg/kg,iv measured at 0.083 to 24 hrs post administration by LC-MS/MS analysis
# Assay type: ADME, organism-based
# Test context: in vivo, time 0.083-24 hrs
The reply should contain only the number, in mL/min/kg.

COCCCOc1cc2c(nc1OC)-c1cc(=O)c(C(=O)O)cn1[C@](C)(C(C)C)C2
22
COCCCOc1cc2c(nc1OC)-c1cc(=O)c(C(=O)O)cn1[C@](C)(C(C)(C)C)C2
40
COCCCOc1cc2c(nc1OC)-c1cc(=O)c(C(=O)O)cn1[C@H](C(C)C)C2
9.6

Req: Kindly indicate its recorded clearance. Item: `COCCCOc1cc2c(cc1OC)-c1cc(=O)c(C(=O)O)cn1[C@H](C(C)C)C2`
Resp: 8.6

###

# Test name: Oral bioavailability in Beagle dog at 10 mg/kg measured at 0.083 to 24 hrs by LC-MS/MS analysis
# Assay type: ADME, organism-based, Canis lupus familiaris
# Test context: in vivo, time 0.083-24 hrs
Parameter measured: bioavailability (%)
The reply should contain only the number, in %.

Take a look at these entries with their results.
COCCCOc1cc2c(cc1OC)-c1cc(=O)c(C(=O)O)cn1[C@H](C(C)C)C2
110
COCCCOc1cc2c(nc1OC)-c1cc(=O)c(C(=O)O)cn1[C@H](C(C)C)C2
98

Here is another compound to look at.
Req: Kindly indicate its recorded bioavailability. Item: `COCCCOc1cc2c(cc1Cl)-c1cc(=O)c(C(=O)O)cn1[C@H](C(C)C)CO2`
Resp: 63
